Target Under Test: Hepatocyte growth factor receptor (Homo sapiens) (UniProt P08581)
Sequence (P08581 whole entry, looked up): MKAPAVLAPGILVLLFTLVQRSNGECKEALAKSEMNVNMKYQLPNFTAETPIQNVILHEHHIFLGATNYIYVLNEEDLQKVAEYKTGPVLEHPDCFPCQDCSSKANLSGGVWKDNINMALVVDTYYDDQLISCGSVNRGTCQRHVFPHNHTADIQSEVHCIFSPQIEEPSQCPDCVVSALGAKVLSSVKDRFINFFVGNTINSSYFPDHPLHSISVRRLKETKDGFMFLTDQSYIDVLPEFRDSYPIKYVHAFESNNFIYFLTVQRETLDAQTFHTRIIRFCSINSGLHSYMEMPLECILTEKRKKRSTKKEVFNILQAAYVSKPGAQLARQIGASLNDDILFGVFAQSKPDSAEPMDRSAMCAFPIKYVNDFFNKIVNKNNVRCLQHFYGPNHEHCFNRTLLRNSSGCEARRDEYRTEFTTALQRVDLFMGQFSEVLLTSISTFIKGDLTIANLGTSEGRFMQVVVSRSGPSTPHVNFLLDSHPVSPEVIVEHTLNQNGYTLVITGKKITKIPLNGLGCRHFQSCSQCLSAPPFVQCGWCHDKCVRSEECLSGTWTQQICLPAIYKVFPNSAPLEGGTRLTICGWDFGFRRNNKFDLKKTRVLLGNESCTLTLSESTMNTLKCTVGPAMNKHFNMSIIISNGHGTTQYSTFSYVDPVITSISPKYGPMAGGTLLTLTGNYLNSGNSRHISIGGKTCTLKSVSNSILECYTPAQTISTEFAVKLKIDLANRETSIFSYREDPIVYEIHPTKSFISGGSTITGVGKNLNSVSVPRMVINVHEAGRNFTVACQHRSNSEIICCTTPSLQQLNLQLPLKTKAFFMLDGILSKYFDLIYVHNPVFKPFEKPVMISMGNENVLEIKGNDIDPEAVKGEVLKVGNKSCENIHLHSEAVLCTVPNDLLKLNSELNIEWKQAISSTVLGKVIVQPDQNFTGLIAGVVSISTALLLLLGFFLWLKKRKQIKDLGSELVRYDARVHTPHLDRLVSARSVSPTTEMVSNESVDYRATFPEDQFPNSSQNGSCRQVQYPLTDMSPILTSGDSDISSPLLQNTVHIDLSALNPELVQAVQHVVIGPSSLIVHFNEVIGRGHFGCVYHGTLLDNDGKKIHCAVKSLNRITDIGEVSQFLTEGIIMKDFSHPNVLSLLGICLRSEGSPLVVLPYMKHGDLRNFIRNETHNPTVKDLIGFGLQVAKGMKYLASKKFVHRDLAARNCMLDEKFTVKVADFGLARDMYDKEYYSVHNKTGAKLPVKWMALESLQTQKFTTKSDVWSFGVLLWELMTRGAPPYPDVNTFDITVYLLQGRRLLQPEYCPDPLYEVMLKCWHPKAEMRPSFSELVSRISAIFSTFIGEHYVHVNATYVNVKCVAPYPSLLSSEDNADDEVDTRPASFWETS
Test Details: Inhibition of c-MET (unknown origin) using FAM-labelled peptide as substrate measured after 10 mins by mobility shift assay
Quantity Name: IC50 (µM)

[
  {
    "Compound": "COc1cc2c(Oc3ccc(C4SCC(=O)N4NC(=O)Nc4ccc(F)cc4F)cc3)ccnc2cc1OCCCN1CCOCC1 (configuration not stated)",
    "Quantity Name": "IC50",
    "Result": 3.35
  },
  {
    "Compound": "COc1cc2c(Oc3ccc(C4SCC(=O)N4NC(=O)Nc4ccccc4)cc3)ccnc2cc1OCCCN1CCOCC1 (configuration not stated)",
    "Quantity Name": "IC50",
    "Result": 4.52
  }
]
